Every entry's value here was drawn from PubChem BioAssay (NCI).

Tested on: RPMI-8226 leukemia
method notes: NCI tumour cell line growth inhibition, 48 h
For each entry below, report its TGI value.

Cc1ccc(C(=O)c2oc3ccc4c(C)cc(=O)oc4c3c2C)cc1
> 100 µM

For each of the items listed, what is its TGI?
1. CCC(=O)c1cn(C)c(=O)c2ccccc12
2. C=CCc1cc2cccc(OC)c2oc1=O

**Result**
["> 100 µM", "> 100 µM"]

For each of the items listed, what is its TGI?
1. CCCCCCC/C=C/[C@H]1O[C@]23C(=O)C[C@@]4(C[C@@H](OC5OC(CO)C(O)C(O)C5O)C[C@@H]4[C@H]2C=C1C)OC3=O (stereo partly specified)
2. CCOC(=O)c1sc2c(c1OC(=O)c1ccccc1)c(=O)n(-c1ccccc1)c(=S)n2-c1ccccc1
3. CN1C2CC(=O)CC1[C@@H]1OC(c3ccccc3)O[C@H]21 (stereo partly specified)
4. COC(=O)CCC/C=C\C[C@H]1C=CC(=O)/C1=C/C[C@@H](O)CCc1cccc(C(F)(F)F)c1
5. CCN(CC)CCNc1c(OC)cc(C)c2sc3ccccc3c(=O)c12
6. COc1ccc(NC(=O)C2C(=O)N(c3ccc(OC)cc3)C(=O)/C2=N/O)cc1 (stereo unspecified)

**Result**
> 33.3 µM
> 100 µM
> 100 µM
14 µM
3.05 µM
> 100 µM

For each of the items listed, what is its TGI?
1. COc1ccc2c(c1)CCc1c-2n(CCN(C)C)c2ccc(OC)cc12
2. Nc1nc2c(ncn2C2C=CC(CO)O2)c(=O)[nH]1 (stereo unspecified)

**Result**
1. 65.9 µM
2. > 100 µM

* * *

For each entry below, report its TGI value.
Tested on: K-562 leukemia
method notes: NCI tumour cell line growth inhibition, 48 h

Below: 3 molecules and their reported TGI.
c1ccc2c(c1)[I+]c1ccccc1-2
> 50 µM
Nc1nc(-c2cccc([N+](=O)[O-])c2)c(Br)c(=O)[nH]1
> 100 µM
CC#CC(O)(C(=O)OC1CCCN(C)C1)C1=CC=CCC1 (centres undefined)
> 100 µM

For each of the items listed, what is its TGI?
1. COc1cc(OC2OC(C)C(O)C(O)C2O)cc2oc(-c3ccc(O)cc3)c(CC=C(C)C)c(=O)c12 (centres undefined)
2. CC(=O)O[C@H]1C(N(C)C(=O)c2ccccc2)CC[C@]2(C)C3CC[C@@]4(C)C(CC(O)[C@@H]4C(C)N(C)C)[C@@H]3CCC12 (some centres undefined)
3. O=C(Nc1cccc(-c2cn3ccccc3n2)c1)c1ccncc1
4. N#CCCN(CCCN(C(=O)Nc1ccccc1)c1ccccc1)C(=O)Nc1ccccc1
5. C=CCCCCCCCCCCCC1CCC(CC)N1 (centres undefined)
6. CCC(=O)c1cn(C)c(=O)c2ccccc12

**Result**
27.9 µM
> 100 µM
61 µM
> 100 µM
28.1 µM
> 100 µM

For each of the items listed, what is its TGI?
1. COC1=CC23C=CC1[C@@H](c1ccccc1)C2=C(C)C(=O)N3C(=O)NC1CCCCC1 (some centres undefined)
2. CCCCCCCCCCCCCCCCCCOCC(O)COP(=O)(O)OCC1OC(n2cc(F)c(=O)[nH]c2=O)CC1O (centres undefined)
3. Cc1cc(S(=O)(=O)Nc2nc(N)nc(N3N=CCC3C)n2)c(S)cc1Cl (centres undefined)
4. O=C(/C=C/c1ccc([N+](=O)[O-])cc1)c1nc2ccccc2[nH]1
5. CSC1SCC2C(=O)N(C)C3(CC3C)C(=O)OCC(NC(=O)c3nc4ccccc4cc3O)C(=O)NC(C)C(=O)N(C)C1C(=O)N(C)C1(CC1C)C(=O)OCC(NC(=O)c1nc3ccccc3cc1O)C(=O)NC(C)C(=O)N2C (centres undefined)

**Result**
1. > 100 µM
2. 32.1 µM
3. > 10 µM
4. > 61.5 µM
5. < 0.0001 µM
